Tested on: A-375
protocolText: Antiproliferative activity against human A-375 cells harboring BRAF V600E mutant assessed as reduction in cell growth
Format: functional, cell-based
assayEndpoint: pEC50
pEC50 here: minus log base 10 of the concentration, concentration in moles per litre.

stdin: // fetch pEC50 given entry COC(=O)N[C@@H](C)CNc1nccc(-c2cn(C(C)C)nc2-c2cc(Cl)cc(NS(C)(=O)=O)c2F)n1
stdout: 8.40
